Listing: Kd of selected binders
Tested System: T1, ETS1Δ335 R394A/Y395A (UniProt P14921 335-441, R394A;Y395A)
T1 sequence: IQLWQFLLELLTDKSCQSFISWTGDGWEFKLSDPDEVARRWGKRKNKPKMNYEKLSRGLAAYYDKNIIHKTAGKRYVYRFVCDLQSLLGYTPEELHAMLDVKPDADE
Test Details: EMSA
Provide a numeric answer, followed by its unit.

| Binder | Assay Value |
| --- | --- |
| MMP3 M2 (dsDNA) DNA 1: ACAGGAAGCACTTTTTGG DNA 2: CCAAAAAGTGCTTCCTGT | 7.33 nM |
| MMP3 M1 (dsDNA) DNA 1: ACAAAAAGCACTTCCTGG DNA 2: CCAGGAAGTGCTTTTTGT | 105 nM |

Qu. Please report the recorded Kd for MMP3 WT (dsDNA) DNA 1: ACAGGAAGCACTTCCTGG DNA 2: CCAGGAAGTGCTTCCTGT .
Ans. 16.1 nM

Attribution: paper doi:10.1101/070185
